Species: Rattus norvegicus
Experiment: Open TG-GATES - Regimen: Single
Assay type: toxicity, organism-based, Sprague-Dawley
Parameters: regimen Single, gender Male, age 6 weeks
Details: in vivo, po, 300 mg/kg, 9 h, tissue Plasma, route gavage, dose level Middle
measurementKind: LDH (IU/L)
Give the number; IU/L is assumed, so skip it.

CN/C(=N/CCSCc1nc[nH]c1C)NC#N | 115.6
COC(=O)C1=C(C)NC(C)=C(C(=O)OC)C1c1ccccc1[N+](=O)[O-] | 72.4
Cc1nnc2n1-c1ccc(Cl)cc1C(c1ccccc1Cl)=NC2 | 57.4
O=C(OC[C@H]1O[C@@H](OC(=O)c2cc(O)c(O)c(OC(=O)c3cc(O)c(O)c(O)c3)c2)[C@H](OC(=O)c2cc(O)c(O)c(OC(=O)c3cc(O)c(O)c(O)c3)c2)[C@@H](OC(=O)c2cc(O)c(O)c(OC(=O)c3cc(O)c(O)c(O)c3)c2)[C@@H]1OC(=O)c1cc(O)c(O)c(OC(=O)c2cc(O)c(O)c(O)c2)c1)c1cc(O)c(O)c(OC(=O)c2cc(O)c(O)c(O)c2)c1 | 92.2

Read the next record carefully.
"CNC(=C[N+](=O)[O-])NCCSCc1ccc(CN(C)C)o1" has a reported LDH of 120.6
